System: cancer cells
Assay: SRB analysis 3, triple combination, summary over cancer panels
Assay type: cell-based
Settings: Ovarian Cancer; SK-OV-3, OVCAR-3
Protocol: Through SRB analysis (n=3), the effect of triple combination treatment of a CAC inhibitor (KN510: omeprazole), ACAA inhibitor (KN713: trimetazidine) and other anticancer drug on cell growth in the cancer cells was analyzed. (see Table 11). The SRB assay was performed as follows: each cell line (100 μl) was seeded into 96-well microtiter plates at densities ranging from 5,000 to 40,000 cells/well depending on the doubling time of each cell line. […]
Experimental Readout: Positive/Negative (triple combination of KN510, KN713 and the listed anticancer drug)

O=c1[nH]cc(F)c(=O)[nH]1 : negative
CCc1c2c(nc3ccc(OC(=O)N4CCC(N5CCCCC5)CC4)cc13)-c1cc3c(c(=O)n1C2)COC(=O)[C@]3(O)CC : negative
Nc1ccn([C@@H]2O[C@H](CO)[C@@H](O)C2(F)F)c(=O)n1 : negative
N.N.[Cl][Pt][Cl] [Cisplatin] : negative
